target: ScHof1; experiment: SPOT peptide array binding signal intensity (averaged, normalized) (arbitrary units (background-subtracted, floor 0; scale differs between SH3 domains)); higher = stronger binding of the SH3 domain to the peptide
QUANTITY: SPOT peptide array binding signal intensity

[
  {
    "BINDER": "KKEKKPPKIPKKVYT",
    "TEST VALUE": 1.5
  },
  {
    "BINDER": "TSIEIPKRSPLRFTS",
    "TEST VALUE": 0.5
  },
  {
    "BINDER": "KMSRSPPRPPSLKII",
    "TEST VALUE": 0.75
  }
]
